# Tested target: Humanakrosin (Homo sapiens, UniProt P10323)
# Construct: endogenous in cells
# Sequence (P10323 20-421): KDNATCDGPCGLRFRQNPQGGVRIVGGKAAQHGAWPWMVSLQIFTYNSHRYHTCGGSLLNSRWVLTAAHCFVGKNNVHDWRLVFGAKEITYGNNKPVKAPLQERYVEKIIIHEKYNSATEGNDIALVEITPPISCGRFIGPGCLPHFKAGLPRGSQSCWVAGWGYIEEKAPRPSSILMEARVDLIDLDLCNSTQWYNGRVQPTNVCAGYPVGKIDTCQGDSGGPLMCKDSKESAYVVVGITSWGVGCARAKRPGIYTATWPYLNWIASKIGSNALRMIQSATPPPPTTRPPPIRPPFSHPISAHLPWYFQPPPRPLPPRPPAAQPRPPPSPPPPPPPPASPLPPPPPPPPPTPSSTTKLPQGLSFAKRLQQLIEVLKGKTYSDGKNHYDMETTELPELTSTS
# Assay protocol: Acrosin (human) assay: inhibition of isolated human acrosin
# Run parameters: Substrat: Benzoyl-L-arginyleth.-ester; read-out: I50
Readout label: log10 IC50 (log10 of the value in nM)

INSERT INTO assay_data (molecule, readout_label, readout_number) VALUES
  ('CCOC(=O)c1cccc(OC(=O)c2ccc(NC(=N)N)cc2)c1 [Verbindung 3]', 'log10 IC50', 2.30),
  ('COC(=O)c1ccccc1OC(=O)c1ccc(NC(=N)N)cc1 [Verbindung 1, reference compound]', 'log10 IC50', 2.87),
  ('COC(=O)c1cccc(OC(=O)c2ccc(NC(=N)N)cc2)c1 [Verbindung 5]', 'log10 IC50', 2.74),
  ('N=C(N)Nc1ccc(C(=O)Oc2cccc(C(N)=O)c2)cc1 [Verbindung 6]', 'log10 IC50', 2.51),
  ('N#Cc1ccccc1OC(=O)c1ccc(NC(=N)N)cc1 [Verbindung 2]', 'log10 IC50', 1.60);
